- System: B16-F10 murine melanoma cells
- methodSummary: Analysis of melanin content in B16-F10 murine melanoma cells (α-MSH stimulated)
- Type: cell-based
- conditionsUsed: Mus musculus; B16-F10 cells, 100 nM α-MSH, 72 hours; read-out: IC50 for inhibiting the melanogenesis
measurementLabel: pIC50
In simple prose, pIC50 is minus the logarithm base ten of a concentration in moles per litre.

Lookup: Please give the measured pIC50 for this molecule: CCCC[C@@H]1OC(=O)[C@H]2CCCC[C@@H]12 [compound I, 3-Butylhexahydrophthalide]
Found: 4.00

Lookup: Please give the measured pIC50 for this molecule: C=CC(c1ccc(O)c(OC)c1)c1cc(/C=C/C(=O)O)cc(OC)c1O (stereo not drawn)
Found: 4.10

Lookup: Please give the measured pIC50 for this molecule: CCCC[C@@H]1OC(=O)C2=CCCC[C@H]21 [compound II, Neocnidilide]
Found: 4.51

Measured values drawn from patent US20150038575A1 for this set.
